# assayTarget: SARS-CoV-2 spike protein on live SARS-CoV-2 virus (SARS-CoV-2, UniProt P0DTC2 14-1273)
# testDescription: cell-based or functional assay
assayMetric: IC50, live SARS-CoV-2 미세중화분석, Vero 세포 (nM)
I only need the number, in nM, no unit after it.

Fill in IC50, live SARS-CoV-2 미세중화분석, Vero 세포 for record SA3830 (antibody, V domains shown) VH: QVQLVESGGGLIQPGRSLSLSCAASGFNFDEYSMHWVRQRPGKGLEWVSGIKYNSNTILYADSVKGRFTVSRDNSKNSLYLQMNSLRAEDTAVYYCARDAMRGGDFDHWGQGTLITVSS VL: DIQMTQSPSYLSASAGDRVTITCRASQSISDWLAWYQHKPGKAPKLLIYKASRLENGVPSRFRGSGSATDFTLTISSLQAEDVAVYYCQQYYSTTWTFGQGTKVDIK
231

Fill in IC50, live SARS-CoV-2 미세중화분석, Vero 세포 for record SA4044 (antibody, V domains shown) VH: EVQLVQSGGGLIQPGGSLRLSCAASGFTVSSNYMSWVRQAPGKGLEWVSVIYSGGSTYYADSVKGRFTISRDNSKNTLHLQMNSLRAEDTAVYYCARDLPQFDGFDYWGQGTLVTVSS VL: QSALTQPPSLSVAPGRTARITCGGNNIGSKSVNWYQHMPGQAPVLVIYSDTDRPSGIPERVSGSKSGNTATLSISRVEAGDEADYYCQVWDSTTDHVVFGGGTKLTVL
80.5
